# Tested on: M14 melanoma
# test_method_notes: NCI tumour cell line growth inhibition, 48 h; in the data active = GI50 below about 0.43 µM; inactive = the rest
Outcomes: 1 = active, 0 = inactive

compound: N.N.N.N.N.[Co+3].[I-].[N-]=[N+]=[N-]
measured_target: M14 melanoma
class: 0
--
compound: CCN1C(=S)N(c2ccccc2)C2NC(=S)N(/N=C/C=C/c3ccccc3OC)C21 (stereo unspecified)
measured_target: M14 melanoma
class: 1
--
compound: Fc1cccc(COc2ccc(Nc3ncnc4sc(-c5cccs5)cc34)cc2Cl)c1
measured_target: M14 melanoma
class: 0
--
compound: CC(=O)c1ccc2c(c1)c1cc(C(C)=O)ccc1n2CCNC(C)C
measured_target: M14 melanoma
class: 1
--
compound: CC(N)C(Cc1ccc(Cl)cc1)c1ccc(Cl)cc1 (stereo unspecified)
measured_target: M14 melanoma
class: 0
--
compound: O=C(CC(Cl)=C(Cl)Cl)Nc1ccccc1
measured_target: M14 melanoma
class: 0

----------
# Tested on: 786-0 renal
# test_method_notes: NCI tumour cell line growth inhibition, 48 h; in the data active = GI50 below about 0.43 µM; inactive = the rest
Outcomes: active, inactive

structure: Cc1nc2ccc(Nc3nc(Cl)nc(N4CCOCC4)n3)cc2n1Cc1ccccc1
measured_target: 786-0 renal
class: inactive
//
structure: O=S(=O)(NCCCNc1nccc(-c2c(-c3ccc(O)cc3)nc3sccn23)n1)c1ccc(F)cc1
measured_target: 786-0 renal
class: inactive
//
structure: Cc1cc(O)c(=O)cc2c1C[C@H]1CC(C)(C)/C=C/C[C@]3(C)Oc4cc(=O)c(O)cc(C)c4C[C@H]3C[C@H](O)[C@@]1(C)O2
measured_target: 786-0 renal
class: active
//
structure: Fc1cccc(COc2ccc(Nc3ncnc4sc(-c5cccs5)cc34)cc2Cl)c1
measured_target: 786-0 renal
class: inactive
//
structure: COC[C@@H](N=C1NC(=O)/C(=C/c2ccc3ncccc3c2)S1)c1ccccc1
measured_target: 786-0 renal
class: inactive
//
structure: O=C(Cc1ccc(/C=C/C(=O)c2ncc[nH]2)cc1)Nc1ccc(F)cc1
measured_target: 786-0 renal
class: inactive
//
structure: CCN(CC)c1ccc(/C=N/NC(=O)CSc2nc3ccccc3c(=O)n2CCc2ccc(S(N)(=O)=O)cc2)c(O)c1
measured_target: 786-0 renal
class: inactive
//
structure: O=Nc1ccc(O)c(=O)cc1
measured_target: 786-0 renal
class: inactive
//
structure: Cc1nc([P+](c2ccccc2)(c2ccccc2)c2ccccc2)c(Sc2sc(-c3ccccc3)nc2[P+](c2ccccc2)(c2ccccc2)c2ccccc2)o1
measured_target: 786-0 renal
class: inactive

----------
# System: SK-MEL-5 melanoma
# test_method_notes: NCI tumour cell line growth inhibition, 48 h; in the data active = GI50 below about 0.43 µM; inactive = the rest
Outcomes: active, inactive

structure: Fc1cccc(COc2ccc(Nc3ncnc4sc(-c5cccs5)cc34)cc2Cl)c1
class: inactive
--
structure: CCOC(=O)c1ccc(NC(=O)Nc2nncs2)cc1
class: active
--
structure: CCN(Cc1ccc(C)cc1)c1ccc(CO)c(Cl)c1
class: inactive
--
structure: COc1cc(/C=C\c2cc(OC)c(OC)c(OC)c2)cc(N/C=C\C(=O)c2ccc(OC(F)(F)F)cc2)c1OC
class: inactive
--
structure: N.N.N.N.N.[Co+3].[I-].[N-]=[N+]=[N-]
class: inactive
--
structure: CC(=O)c1ccc2c(c1)c1cc(C(C)=O)ccc1n2CCNC(C)C
class: active

----------
# Test system: PC-3 prostate
# test_method_notes: NCI tumour cell line growth inhibition, 48 h; in the data active = GI50 below about 0.43 µM; inactive = the rest
Outcomes: active, inactive

compound: COc1ccc(C2CC(c3cccc(Nc4ccnc5cc(Cl)ccc45)c3)=NN2C=O)cc1 (centres undefined)
class: inactive

compound: CCOC(=O)c1ccc(NC(=O)Nc2nncs2)cc1
class: active

compound: Cc1nc([P+](c2ccccc2)(c2ccccc2)c2ccccc2)c(Sc2sc(-c3ccccc3)nc2[P+](c2ccccc2)(c2ccccc2)c2ccccc2)o1
class: inactive

compound: O=Nc1ccc(O)c(=O)cc1
class: inactive

compound: CCN1C/C(=C\c2cc(OC)c(OC)cc2OC)C(=O)/C(=C/c2cc(OC)c(OC)cc2OC)C1
class: inactive

compound: CCN(Cc1ccc(C)cc1)c1ccc(CO)c(Cl)c1
class: inactive

compound: CCN1C(=S)N(c2ccccc2)C2NC(=S)N(/N=C/C=C/c3ccccc3OC)C21 (centres undefined)
class: active

compound: CCOC(=O)c1cc(C(=O)c2cc(OC)c(OC)c(OC)c2)n2ncccc12
class: active

compound: Cc1cccc(N(C)C(=O)[C@@H]2[C@H](O)CCN2c2nc(C)cc(C(F)(F)F)c2C#N)c1
class: inactive

----------
# Test system: DU-145 prostate
# test_method_notes: NCI tumour cell line growth inhibition, 48 h; in the data active = GI50 below about 0.43 µM; inactive = the rest
Outcomes: active, inactive

molecule: CS(=O)(=O)Nc1cncc(-c2ccc3ncnc(Nc4ccc(F)c(Cl)c4)c3c2)c1
class: inactive
--
molecule: Cc1cc2nc3c4cc(O)ccc4n(CCN(C)C)c3nc2cc1C
class: inactive
--
molecule: CCN(Cc1ccc(C)cc1)c1ccc(CO)c(Cl)c1
class: inactive
--
molecule: Cc1cc(O)c(=O)cc2c1C[C@H]1CC(C)(C)/C=C/C[C@]3(C)Oc4cc(=O)c(O)cc(C)c4C[C@H]3C[C@H](O)[C@@]1(C)O2
class: active
--
molecule: CCC(C)[C@H]1O[C@]2(CC[C@@H]1C)C[C@@H]1C[C@@H](C/C=C(\C)[C@@H](OC3C[C@H](OC)C(O[C@H]4C[C@H](OC)[C@@H](O)[C@H](C)O4)[C@H](C)O3)[C@@H](C)/C=C/C=C3\CO[C@@H]4[C@H](O)C(C)=C[C@@H](C(=O)O1)[C@]34O)O2 (stereo not given in full)
class: inactive
--
molecule: C=C1CC[C@@H]2[C@](C)(COC(C)=O)[C@H](OC(C)=O)CC[C@@]2(C)[C@@H]1CC(Nc1ccc(S(=O)(=O)NC(C)=O)cc1)C1=CCOC1=O (stereo not given in full)
class: inactive
--
molecule: O=c1[nH]c2ccccc2c2ccccc12
class: inactive
--
molecule: CCN(CCCN(C)C)Cc1cc(I)cc(C)c1O
class: inactive
--
molecule: OCCN1CCN(CCCN2c3ccccc3Sc3ccc(Cl)cc32)CC1
class: inactive
--
molecule: O=C(Oc1cccc2cccnc12)c1cc2c(cc1Cl)SC(N(c1ccc(F)cc1)S(=O)(=O)c1ccc(Br)s1)=NS2(=O)=O
class: inactive
--
molecule: COc1cc(C2Cc3ncccc3-c3[nH]c(=O)c4cccnc4c32)cc(OC)c1OC (stereo not given)
class: inactive
--
molecule: CC(N)C(Cc1ccc(Cl)cc1)c1ccc(Cl)cc1 (stereo not given)
class: inactive
--
molecule: COc1ccc(C2CC(c3cccc(Nc4ccnc5cc(Cl)ccc45)c3)=NN2C=O)cc1 (stereo not given)
class: inactive
--
molecule: CCCCCCCCCCCCOC1C(CNC(=O)C2OC3OC(C)(C)OC3C2NC(=O)Nc2ccc(CC(=O)OC)cc2)OC2OC(C)(C)OC21 (stereo not given)
class: inactive
--
molecule: COc1cc(Nc2nc3cc(N)cc(N)c3nc2-c2ccccc2)cc(OC)c1OC
class: inactive

----------
# Test system: HCT-15 colon
# test_method_notes: NCI tumour cell line growth inhibition, 48 h

compound: O=Nc1ccc(O)c(=O)cc1
TGI: 9.62 µM

compound: CC(C)c1[nH]nc(C(N)=O)c1N=NN(C)C
TGI: > 100 µM

compound: Cc1ccn2c(=O)cc(CN3CCOCC3)nc2c1
TGI: > 100 µM

compound: c1ccc(-c2nnn3c2NC2=C(CCCC2)C3c2ccccc2)cc1 (stereo not drawn)
TGI: 3.04 µM

compound: COC(=O)C(C(=O)C(=O)Nc1c(C)cccc1C)c1cnc2ccccc2n1 (stereo not drawn)
TGI: > 100 µM

compound: C=CCn1c(-c2ccc([N+](=O)[O-])cc2)cs/c1=N\C(P(=O)(O)O)P(=O)(O)O
TGI: > 100 µM

compound: CC1=Nc2ccccc2S/C1=C(/C)NNS(=O)(=O)c1ccc(C)cc1
TGI: > 100 µM

compound: NS(=O)(=O)c1ccc(Nc2cc(-c3cccc(O)c3)[nH]n2)cc1
TGI: > 25 µM

compound: O=C1NC(=O)C(F)(n2cc(F)c(=O)[nH]c2=O)C(O)N1 (stereo not drawn)
TGI: > 10 µM

compound: Cc1cc(O)c(=O)cc2c1C[C@H]1CC(C)(C)/C=C/C[C@]3(C)Oc4cc(=O)c(O)cc(C)c4C[C@H]3C[C@H](O)[C@@]1(C)O2
TGI: > 100 µM

compound: CCCCCCCCCCCCOC1C(CNC(=O)C2OC3OC(C)(C)OC3C2NC(=O)Nc2ccc(CC(=O)OC)cc2)OC2OC(C)(C)OC21 (stereo not drawn)
TGI: > 100 µM

compound: CCN(CC)C(=O)Cc1c(C(=O)N(CC)CC)c(=O)nc2sccn12
TGI: > 100 µM

compound: c1cc(NNc2cccc(-c3nn[nH]n3)c2)cc(-c2nn[nH]n2)c1
TGI: > 100 µM

----------
# System: SK-OV-3 ovarian
# test_method_notes: NCI tumour cell line growth inhibition, 48 h

compound: Cc1cc2c(c(C=Nc3ccccc3O)c1)OC1(C=C2)Oc2ccccc2C(=O)N1C (configuration not stated)
TGI: 58.4 µM
--
compound: COc1cc2oc(=O)ccc2cc1C(=O)CC(C)C
TGI: > 100 µM
--
compound: Cc1nc(-n2nc(-c3ccccc3)cc2-c2ccccc2)sc1C(=O)/C=C/c1ccc(/C=C/C(=O)c2sc(-n3nc(-c4ccccc4)cc3-c3ccccc3)nc2C)cc1
TGI: > 100 µM
--
compound: O=C1CSC(/C=C/c2ccccc2)N1c1nc2cc3sc(N4C(=O)CSC4/C=C/c4ccccc4)nc3cc2s1 (configuration not stated)
TGI: > 100 µM
--
compound: CC(C)(O)[C@@H]1CC[C@@]2(C)CCCC(O)C2(O)C1 (some centres not stated)
TGI: > 100 µM
--
compound: N#Cc1cc(C#N)c(N)nc1N
TGI: > 100 µM
--
compound: O=C1CSCc2sccc21
TGI: > 100 µM
--
compound: CC(=O)O[C@H]1C(=O)[C@@]2(C)[C@H]([C@H](OC(=O)c3cccc([N+](=O)[O-])c3)[C@]3(O)C[C@H](OC(=O)[C@H](O)[C@@H](NC(=O)c4ccccc4)c4ccccc4)C(C)=C1C3(C)C)[C@]1(OC(C)=O)CO[C@@H]1C[C@@H]2O
TGI: > 25 µM
--
compound: O=c1ccc2nc3cc(Br)ccc3sc-2c1
TGI: > 100 µM
--
compound: N#CC(C(=O)c1cccnc1Cl)c1nc2cc(C(F)(F)F)ccc2s1 (configuration not stated)
TGI: > 100 µM
--
compound: O=C(O)c1ccc(C(=O)c2ccccc2C(=O)O)cc1C(=O)O
TGI: > 100 µM
--
compound: O=c1[nH]c(Nc2ccc(Cl)c(C(F)(F)F)c2)nc2nc[nH]c12
TGI: > 100 µM
--
compound: Cc1ccc(S(=O)(=O)OCCn2cnc3nc(NC(=O)c4ccccc4)[nH]c(=O)c32)cc1
TGI: > 100 µM
--
compound: COc1ccc(C(c2cc(OC)c(OC)c(OC)c2)n2ccnc2)cc1O (configuration not stated)
TGI: > 100 µM
--
compound: Nc1nccc(-c2c(-c3ccc(F)cc3)ncn2C2CCNCC2)n1
TGI: > 25 µM
--
compound: COc1ccc(/C=C(/C#N)C(N)=O)c(OC)c1
TGI: > 100 µM
--
compound: O=C1NC(Cc2ccc(O)cc2)C(=O)N2CCCC12 (configuration not stated)
TGI: > 100 µM
--
compound: COc1ccc2c(c1)/C(=C\c1c(-c3cc(OC)ccc3OC)nc3sc(C)cn13)C(=O)N2C
TGI: > 100 µM
--
compound: CC(=O)c1ccc2c(c1)c1cc(C(C)=O)ccc1n2CCNC(C)C
TGI: 8.76 µM
--
compound: O=c1[nH]c2ccccc2c2ccccc12
TGI: > 100 µM
--
compound: COc1ccc(C2CC(c3cccc(Nc4ccnc5cc(Cl)ccc45)c3)=NN2C=O)cc1 (configuration not stated)
TGI: > 35.6 µM
--
compound: CCOc1cc(C2SCC(=O)N2c2ccc(Oc3ccc(Cl)cc3)c(Cl)c2)ccc1O (configuration not stated)
TGI: 37.3 µM
--
compound: COC[C@@H](N=C1NC(=O)/C(=C/c2ccc3ncccc3c2)S1)c1ccccc1
TGI: > 25 µM
--
compound: NC1=CN(CCCO)C2=N/C(=C\c3ccccc3)C(=O)N12
TGI: > 100 µM
--
compound: C/C(=C1/N=C(c2cc([N+](=O)[O-])ccc2Cl)N(c2cccc(C)c2)C1=O)c1cc2ccccc2oc1=O
TGI: > 100 µM
--
compound: Cc1ccc(NC(Nc2ccc(C)cc2C)=C(C(Cl)=C(Cl)Cl)[N+](=O)[O-])c(C)c1
TGI: 39.8 µM
--
compound: N#Cc1c(-c2ccc(Cl)c(Cl)c2)c(-c2ccc(Cl)c(Cl)c2)nn(CC(=O)O)c1=O
TGI: > 100 µM
--
compound: O=C1C2Nc3ccccc3SC2C(=O)N1c1ccc(Br)cc1 (configuration not stated)
TGI: 61.1 µM
--
compound: Nc1ncnc2c1ncn2[C@]1(CO)C=C(CO)C(O)C1O (some centres not stated)
TGI: > 100 µM
--
compound: O=C1/C(=C\Oc2ccc(F)cc2)N2CCC1CC2
TGI: > 100 µM
--
compound: COc1cc(C2Cc3ncccc3-c3[nH]c(=O)c4cccnc4c32)cc(OC)c1OC (configuration not stated)
TGI: > 100 µM
--
compound: CC(=O)OCC1OC(n2cc(F)c(=O)[nH]c2=O)C(NC(=O)N(CCCl)N=O)C(OC(C)=O)C1OC(C)=O (configuration not stated)
TGI: > 100 µM
